Target: KRAS G12D:SOS1 (Homo sapiens, UniProt P01116, G12D)
Sequence (P01116 1-188 isoform P01116-2 G12D): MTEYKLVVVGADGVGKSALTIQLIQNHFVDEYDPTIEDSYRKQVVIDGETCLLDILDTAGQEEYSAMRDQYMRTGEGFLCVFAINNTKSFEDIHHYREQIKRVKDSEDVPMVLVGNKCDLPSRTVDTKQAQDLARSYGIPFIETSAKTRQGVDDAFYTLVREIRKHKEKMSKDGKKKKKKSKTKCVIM
Test: KRAS G12D:SOS1 GDP TR-FRET assay
Settings: GST-KRAS G12D 37.5 nM, GDP 10 μM, His-SOS1 18 nM
pIC50: −log10 of the molar value.

COMPOUND: C[C@@H](CN1CCC(F)(F)CC1)Oc1nc(N2C3CCC2CNC3)c2cc(Cl)c(-c3ccc(F)c4sc(N)nc34)c(F)c2n1
pIC50: 8.00
//
COMPOUND: C[C@@H](CN1CCS(=O)(=O)CC1)Oc1nc(N2CC3CCC(C2)N3)c2cc(Cl)c(-c3ccc(F)c4sc(N)nc34)c(F)c2n1
pIC50: 7.57
//
COMPOUND: C[C@@H](CN1CCC(F)CC1)Oc1nc(N2CC3CCC(C2)N3)c2cc(Cl)c(-c3ccc(F)c4sc(N)nc34)c(F)c2n1
pIC50: 8.66
//
COMPOUND: CO[C@@H]1C[C@@H](COc2nc(N3CC4CCC(C3)N4)c3cc(Cl)c(-c4ccc(F)c5sc(N)nc45)c(F)c3n2)N(C)C1
pIC50: 8.28
//
COMPOUND: C[C@@H](CN1CC(F)(F)C1)Oc1nc(N2CC3CCC(C2)N3)c2cc(Cl)c(-c3ccc(F)c4sc(N)nc34)c(F)c2n1
pIC50: 7.09
//
COMPOUND: CC(CN1CCNCC1)Oc1nc(N2CC3CCC(C2)N3)c2cc(Cl)c(-c3ccc(F)c4sc(N)nc34)c(F)c2n1 (centres unmarked)
pIC50: 8.08
//
COMPOUND: CC1CCCCN1C[C@H](C)Oc1nc(N2CC3CCC(C2)N3)c2cc(Cl)c(-c3ccc(F)c4sc(N)nc34)c(F)c2n1 (some centres unmarked)
pIC50: 8.54
//
COMPOUND: C[C@@H](CN1CCOCC1)Oc1nc(N2C3CCC2CNC3)c2cc(Cl)c(-c3ccc(F)c4sc(N)nc34)c(F)c2n1
pIC50: 7.96
//
COMPOUND: Cc1cc(N)nc(-c2c(Cl)cc3c(N4CC5CCC(C4)N5)nc(O[C@@H](C)CN4CCCCC4)nc3c2F)c1C(F)(F)F
pIC50: 7.66
//
COMPOUND: C[C@@H](CN1CC(F)C1)Oc1nc(N2CC3CCC(C2)N3)c2cc(Cl)c(-c3ccc(F)c4sc(N)nc34)c(F)c2n1
pIC50: 7.96
//
COMPOUND: C[C@@H](CN1CCN(C)CC1)Oc1nc(N2CC3CCC(C2)N3)c2cc(Cl)c(-c3ccc(F)c4sc(N)nc34)c(F)c2n1
pIC50: 7.82
//
COMPOUND: CC(CN1CCCCC1)Oc1nc(N2C3CCC2C(N)C3)c2cc(Cl)c(-c3ccc(F)c4sc(N)nc34)c(F)c2n1 (centres unmarked)
pIC50: 7.59
//
COMPOUND: CC(CN1C2CCC1CNC2)Oc1nc(N2CC3CCC(C2)N3)c2cc(Cl)c(-c3ccc(F)c4sc(N)nc34)c(F)c2n1 (centres unmarked)
pIC50: 8.24
//
COMPOUND: C[C@@H](CN1CCOCC1)Oc1nc(N2CC3CCC(C2)N3)c2cc(Cl)c(-c3ccc(F)c4sc(N)nc34)c(F)c2n1
pIC50: 8.23
//
COMPOUND: C[C@@H](CN1CCC(F)(F)C1)Oc1nc(N2CC3CCC(C2)N3)c2cc(Cl)c(-c3ccc(F)c4sc(N)nc34)c(F)c2n1
pIC50: 7.60
//
COMPOUND: CN1C[C@H](F)C[C@H]1COc1nc(N2CC3CCC(C2)N3)c2cc(Cl)c(-c3ccc(F)c4sc(N)nc34)c(F)c2n1
pIC50: 8.36
//
COMPOUND: Cc1cc(N)nc(-c2c(Cl)cc3c(N4CC5CCC(C4)N5)nc(OC[C@@H]4C[C@@H](F)CN4C)nc3c2F)c1C(F)(F)F
pIC50: 7.89
//
COMPOUND: Nc1nc2c(-c3c(Cl)cc4c(N5C6CCC5CNC6)nc(OC5CC6CCCCN6C5)nc4c3F)ccc(F)c2s1 (centres unmarked)
pIC50: 7.27
//
COMPOUND: CN1CCC[C@H]1COc1nc(N2CC3CCC(C2)N3)c2cc(Cl)c(-c3ccc(F)c4sc(N)nc34)c(F)c2n1
pIC50: 8.55
//
COMPOUND: C[C@@H](CN1CCC(F)CC1)Oc1nc(N2C3CCC2CNC3)c2cc(Cl)c(-c3ccc(F)c4sc(N)nc34)c(F)c2n1
pIC50: 7.92
//
COMPOUND: C[C@@H](CN1CCC1)Oc1nc(N2CC3CCC(C2)N3)c2cc(Cl)c(-c3ccc(F)c4sc(N)nc34)c(F)c2n1
pIC50: 8.41
//
COMPOUND: CN(C)C(=O)CCOc1nc(N2CC3CCC(C2)N3)c2cc(Cl)c(-c3ccc(F)c4sc(N)nc34)c(F)c2n1
pIC50: 7.62
//
COMPOUND: C[C@@H](CN1CCCCC1)Oc1nc(N2C3CCC2CNC3)c2cc(Cl)c(-c3ccc(F)c4sc(N)nc34)c(F)c2n1
pIC50: 8.60
//
COMPOUND: C[C@@H](CN1CC=CCC1)Oc1nc(N2CC3CCC(C2)N3)c2cc(Cl)c(-c3ccc(F)c4sc(N)nc34)c(F)c2n1
pIC50: 8.21
//
COMPOUND: CC(CN1CCCCC1)Oc1nc(N2CC3CC(C2)N3)c2cc(Cl)c(-c3ccc(F)c4sc(N)nc34)c(F)c2n1 (centres unmarked)
pIC50: 7.74
//
COMPOUND: CC(CN1CCCCC1)Oc1nc(N2CC3COCC(C2)N3)c2cc(Cl)c(-c3ccc(F)c4sc(N)nc34)c(F)c2n1 (centres unmarked)
pIC50: 7.36
